Entries and their measured Ki follow.
# assay.target: purified human Factor XIa (Homo sapiens (Human), UniProt P03951)
# Sequence (P03951 whole entry, looked up): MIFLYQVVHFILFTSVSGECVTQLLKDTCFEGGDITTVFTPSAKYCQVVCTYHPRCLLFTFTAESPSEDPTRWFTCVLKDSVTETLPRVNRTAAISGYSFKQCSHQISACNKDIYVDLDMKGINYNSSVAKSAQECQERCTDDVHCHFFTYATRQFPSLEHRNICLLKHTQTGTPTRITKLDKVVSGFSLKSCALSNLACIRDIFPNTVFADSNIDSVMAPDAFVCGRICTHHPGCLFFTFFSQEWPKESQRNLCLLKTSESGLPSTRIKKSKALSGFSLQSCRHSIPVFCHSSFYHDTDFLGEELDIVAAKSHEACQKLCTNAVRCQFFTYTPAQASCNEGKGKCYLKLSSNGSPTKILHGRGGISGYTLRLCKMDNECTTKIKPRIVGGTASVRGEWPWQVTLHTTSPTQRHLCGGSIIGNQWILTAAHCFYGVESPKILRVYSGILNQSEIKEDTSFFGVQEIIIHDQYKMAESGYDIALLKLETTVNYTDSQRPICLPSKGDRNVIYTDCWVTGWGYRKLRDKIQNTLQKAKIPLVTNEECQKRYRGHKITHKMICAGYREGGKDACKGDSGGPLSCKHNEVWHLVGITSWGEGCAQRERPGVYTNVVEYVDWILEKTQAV
# Sequence (P03951 whole entry partner, looked up): as the sequence (P03951 whole entry, looked up) above
# protocol.description: biochemical
# Type: biochemical
# experimental.setup: read-out: Factor XIa Ki
Structures can show the parent of a compound that is named as a salt.

# compound, censoring.sign, Ki / nM
measured = [
    ("CCOC(=O)Cc1nnc(Nc2ccc3c(c2)NC(=O)[C@H](C)CCC[C@H](N2CCC(c4c(F)ccc(Cl)c4F)=CC2=O)c2cc-3ccn2)o1 [Example 42, TFA salt]", "=", 0.45),
    ("CC(C)[C@@H]1CCC[C@H](N2CCC(c3c(-n4cnnn4)ccc(Cl)c3F)=CC2=O)c2cc(ccn2)-c2ccccc2NC1=O [Example 100, TFA salt]", "=", 0.09),
    ("C[C@@H]1CCC[C@H](N2CCC(c3c(F)ccc(Cl)c3F)=CC2=O)c2cc(ccn2)-c2ccc(Nc3nnc(-c4ccco4)o3)cc2NC1=O [Example 103, TFA salt]", "=", 6.13),
    ("C[C@@H]1CCC[C@H](N2CCC(c3c(F)ccc(Cl)c3F)=CC2=O)c2cc(ccn2)-c2ccc(NC3O[C@H](C(=O)O)[C@@H](O)[C@H](O)[C@H]3O)cc2NC1=O (some centres unmarked)", "=", 10.3),
    ("COC(=O)Nc1ccc2c(c1)NC(=O)[C@H](C)CCC[C@H](N1CCC(c3cncn3Cc3ccccc3)=CC1=O)c1cc-2ccn1 [Example 101, bis TFA salt]", ">", 434),
]
